Would you mind telling me the reported Plant response rating, Bermudagrass of each entry?
Test system: bermudagrass (Cynodon dactylon)
Assay: Test B pre-/postemergence plant response
Assay type: in vivo
Conditions: Preemergence, 31 g ai/ha; 0 to 100 scale, 0 no effect, 100 complete control
Numbers only.

As a guide, the following entries are already answered.
Cc1cc(-c2ccc(Cl)cc2)nn1-c1c(OS(=O)(=O)c2ccccc2[N+](=O)[O-])cnn(C)c1=O: 100
Cc1cc(-c2ccc(Br)cc2)nn1-c1c(OC(=O)OC(C)C)cnn(C)c1=O: 100
CCc1cc(-c2ccc(Cl)cc2)nn1-c1c(OC(=O)OC(C)C)cnn(C)c1=O: 0
Cc1cc(-c2ccc(Cl)cc2)nn1-c1c(OS(C)(=O)=O)cnn(C)c1=O: 100
CCc1cc(-c2ccc(Cl)c(Cl)c2)nn1-c1c(O)cnn(C)c1=O: 0

Could you tell me Plant response rating, Bermudagrass for each of these compounds? They are listed below.
1. Cc1cc(-c2ccc(Br)cc2)nn1-c1c(O)cnn(C)c1=O
2. Cc1cc(-c2ccc(C(F)(F)F)cc2)nn1-c1c(OC(=O)C(C)(C)C)cnn(C)c1=O

**Result**
1: 100; 2: 100
